Measured values drawn from patent US20210147523A1 for this set.

Listing: pEC50 of selected binders
- TARGET_UNDER_TEST: T1, human SPNS2 (human, UniProt Q8IVW8 1-549)
- T1 construct: S1P transporter; in Cell ELISA and S1P assays on Flp-in 293 cells that also express human SphK1; also called Spinster homolog 2; native type
- T1 sequence: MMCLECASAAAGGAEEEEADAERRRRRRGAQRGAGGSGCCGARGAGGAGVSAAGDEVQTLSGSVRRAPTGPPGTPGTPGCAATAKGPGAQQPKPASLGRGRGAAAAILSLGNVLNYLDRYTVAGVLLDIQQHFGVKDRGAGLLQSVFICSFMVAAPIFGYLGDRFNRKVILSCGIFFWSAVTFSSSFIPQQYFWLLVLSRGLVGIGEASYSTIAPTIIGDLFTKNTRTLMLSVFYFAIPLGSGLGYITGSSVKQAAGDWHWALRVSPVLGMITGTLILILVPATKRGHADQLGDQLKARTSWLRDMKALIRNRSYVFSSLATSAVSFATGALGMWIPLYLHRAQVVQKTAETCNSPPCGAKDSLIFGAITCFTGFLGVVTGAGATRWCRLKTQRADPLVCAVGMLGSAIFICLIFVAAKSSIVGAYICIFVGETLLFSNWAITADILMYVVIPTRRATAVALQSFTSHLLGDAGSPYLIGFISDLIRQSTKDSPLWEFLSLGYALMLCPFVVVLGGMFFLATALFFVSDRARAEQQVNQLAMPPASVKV
- EXPERIMENT: Cell ELISA

Example entries begin here.
1) 50-0704C (antibody, IgG2b, V domains shown) VH: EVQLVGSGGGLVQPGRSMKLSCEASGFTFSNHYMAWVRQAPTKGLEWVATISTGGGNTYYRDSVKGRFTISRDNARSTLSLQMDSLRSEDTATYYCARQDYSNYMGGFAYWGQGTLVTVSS VL: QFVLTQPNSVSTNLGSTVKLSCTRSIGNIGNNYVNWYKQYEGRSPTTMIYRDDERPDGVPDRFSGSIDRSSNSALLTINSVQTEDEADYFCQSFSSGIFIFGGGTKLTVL : 8.15 pEC50 (M)
2) 96-1403F (antibody, IgG2b, V domains shown) VH: EVQLVETGGGLVRPGSSLKLSCATSGFTFSDTWMSWVRQAPGKGLEWVALIKDKNSNSEANYAESIKGRFTISRDDSKSRVYLQMNTLRDQDTATYYCTRHEDFYYYSGYYFDYWGQGVMVTVSS VL: DIVLTQSPPTLSVTPGESVSLSCRASQGISTSIHWYQQRSNESPRLLIKYASQSIAGIPSRFSGSGSGTDFILSINRVESEDFSVYYCQQTYSLPLTFGPGTKLEVKR : 7.76 pEC50 (M)

Asked: What value of pEC50 has been reported for the following binder? 49-0703G (antibody, IgG2b, V domains shown) VH: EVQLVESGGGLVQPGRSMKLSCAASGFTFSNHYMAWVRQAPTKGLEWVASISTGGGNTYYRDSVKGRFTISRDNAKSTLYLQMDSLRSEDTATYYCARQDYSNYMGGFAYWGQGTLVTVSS VL: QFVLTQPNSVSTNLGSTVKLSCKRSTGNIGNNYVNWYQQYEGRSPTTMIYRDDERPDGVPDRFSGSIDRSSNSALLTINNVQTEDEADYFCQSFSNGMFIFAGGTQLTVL
Given back: 8.42 pEC50 (M)

Asked: What value of pEC50 has been reported for the following binder? 64-0807A (antibody, IgG2b, V domains shown) VH: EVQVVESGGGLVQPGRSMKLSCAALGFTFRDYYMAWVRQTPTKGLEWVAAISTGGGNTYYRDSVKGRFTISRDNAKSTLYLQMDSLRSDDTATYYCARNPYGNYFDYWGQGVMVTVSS VL: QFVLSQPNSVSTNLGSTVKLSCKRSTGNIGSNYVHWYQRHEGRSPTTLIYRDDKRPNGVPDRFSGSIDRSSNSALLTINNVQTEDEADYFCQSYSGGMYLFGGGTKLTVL
Given back: 8.07 pEC50 (M)

Asked: What value of pEC50 has been reported for the following binder? 94-1311E (antibody, V domains shown) VH: EVQLQQSGAGLVRPRTSVRLSCKISGDSITAYYVHFVKQRPGQGLEWIGRIDPEDDSTKYSEKFKNKATLTADVSSSTAYLILSSLTSDDSATYFCSTLTGLDYWGQGVMVTVSS VL: DIQMTQSPPVLSASVGDRVTLSCKASQSVHNKLDWYQQKHGEAPKLLIYYTHNLQTGIPSRFSGSGSGSDYTLTISSLRAEDVATYYCFQYYSGWTFGGGTKLEMKR
Given back: 8.34 pEC50 (M)

Asked: What value of pEC50 has been reported for the following binder? 83-1110B (antibody, IgG2b, V domains shown) VH: EVQLQQSGPEFVRPGTSVKFSCKVSGGSITSYFIHFVKQRPGQGLEWIGKIDPEDDSTKYGEKFKNKATLTADTSSNTAFLKLSSLTSEDTAIYFCTTLTGLDYWGQGVMVTVSS VL: DIQMTQSPPVLSAAVGDRVTLSCKASRSLNKNLDWYQQKHGETPKLLIYHTHNLQTGIPSRFSGSGSDTDYTLTISSLQTEDVATYYCYQYHSGWTFGGGTRLELRR
Given back: 8.32 pEC50 (M)

Asked: What value of pEC50 has been reported for the following binder? 53-0707E (antibody, IgG2b, V domains shown) VH: EVQLQQSGAELVRPRTSVKLSCKVSGDSITRYYVHFVKQRPGQGLEWIGRIDPEDDTTKYSEKFKKKATLTADASSNTAYLIFSGLTSEDTATYFCSTLTGLDYWGQGVMVTVSS VL: DIQMTQSPPVLSTSVGDRVTLRCKASQNVHSKLDWYQQKHGEAPKLLIYYTHNLQTGIPSRFSGSGSGTDYTLTISSLQPEDVATYYCFQYYSGWTFGGGTKLEMKR
Given back: 7.87 pEC50 (M)

Asked: What value of pEC50 has been reported for the following binder? 89-1207D (antibody, IgG2b, V domains shown) VH: EVQLVGSGGGLVQPGRSMKLSCEASGFTFSNHYMAWVRQAPTKGLEWVATISTGGGNTYYRDSVKGRFTISRDNARSILSLQMDSLRSEDTATYYCARQDYSNYMGGFAYWGQGTLVTVSS VL: QFVLTQPNSVSTNLGSTVKLSCTRSIGNIGNNYVNWYKQYEGRSPTTMIYRDDERPDGVPDRFSGSIDRSSNSALLTINNVQTEDEADYFCQSFSSGMFIFGGGTKLTVL
Given back: 7.97 pEC50 (M)

Asked: What value of pEC50 has been reported for the following binder? 18-0211B (antibody, IgG2b, V domains shown) VH: AVQLVGSGGGLVQPGRSMKLSCEASGFTFSNHYMAWVRQAPTRGLEWVATISTGGGNTYYRDSVKGRFTISRDNTRSTLSLQMDSLRSEDTATYYCTRQDYTNYMGGFAYWGQGTLVTVSS VL: QFVLTQPNSVSTNLGSTVKLSCTRSIGNIGNNYVNWYKQYEGRSPTTLIYRDDERPDGVPDRFSGSIDRSSNSALLTINSVQTEDGADYFCQSFSSGIFIFGGGTTLTVL
Given back: 8.59 pEC50 (M)

Asked: What value of pEC50 has been reported for the following binder? 37-0511F (antibody, IgG2b, V domains shown) VH: EVHLQQSGAALVRPRASVKLSCKVSGDSISRYYVHFVKQRPGQGLEWIGRIDPEDDTTKYSEKFKNRATLTADASSDTASLILSGLTSDDTATYFCSTLTGLDYWGQGVMVTVSS VL: DIQMTQSPPVLSTSVGDRVTLRCKPSQNVHSKLDWYQQKHGEAPKLLIYYTHNLQTGIPSRFSGSGSGTDYTLTISSLQPEDVATYYCFQYYSGWTFGGGTKLEMKR
Given back: 8.2 pEC50 (M)
